target: Q9UMS6; test: holdup assay; set-up: key: below the threshold = too weak to quantify, mostly under pKd 3.1 to 4; conditions: plain residues with an end cap or a label only (N-terminal biotin on a linker: ttds)
PARAMETER_MEASURED: pKd

Here is how some binders turned out for pKd.
>>> df
                         binder  parameter_measured      recorded_result
0     QSARYRDTEL [TJP2, Q9UDY2]                 pKd  below the threshold
1    STLTIFETAL [ABCC4, O15439]                 pKd  below the threshold
2  SVWLRKETRV [CYSLTR2, Q9NS75]                 pKd  below the threshold
3    RSLEEEESQL [GRASP, Q7Z6J2]                 pKd  below the threshold

Need pKd of PKTPPTDTSV [KIR3DL3, Q8N743] , thanks.
below the threshold
